tested on: Yersinia pseudotuberculosis YPIII; test: Inhibition of T3S in Yersinia pseudotuberculosis YPIII expressing yopE-luxAB at 3.13 uM after 3 hrs by luciferase reporter gene assay
reported.property: inhibition (%)
Please reply with the bare figure in % and do not write the unit itself.

CCN(CC)c1ccc(/C=N/NC(=O)c2cc(Cl)cc(Cl)c2)c(O)c1	19
COc1ccc(C(=O)N/N=C/c2cc(I)cc(I)c2O)cc1OC	4
COc1ccc(Br)c(/C=N/NC(=O)CC#N)c1O	12
CC(C)(C)c1ccc(O)c(/C=N/NC(=O)Cc2ccccc2)c1	13

Please list inhibition recorded for the compound `COc1cccc(C(=O)N/N=C/c2cc(Br)ccc2O)c1` 15

Please list inhibition recorded for the compound `COc1cc(/C=N/NC(=O)COc2ccc([N+](=O)[O-])cc2)c(O)c(OC)c1` -1

Please list inhibition recorded for the compound `O=C(N/N=C/c1cc(Br)ccc1O)c1ccccc1Cl` 10

Please list inhibition recorded for the compound `COc1cc(C(=O)N/N=C/c2ccc(O)c(O)c2O)cc(OC)c1OC` 11

Please list inhibition recorded for the compound `COc1cccc(/C=N/NC(=O)c2ccccc2[N+](=O)[O-])c1O` 19

---

system: Yersinia pseudotuberculosis YPIII; assay: Inhibition of T3S in Yersinia pseudotuberculosis YPIII expressing yopE-luxAB at 1.56 uM after 3 hrs by luciferase reporter gene assay
Collected inhibition values appear next to each entry.
Please reply with the bare figure in % and do not write the unit itself.

Solved cases below.
COc1ccc(Br)c(C(=O)N/N=C/c2cc([N+](=O)[O-])cc([N+](=O)[O-])c2O)c1	-7
CC(C)(C)c1ccc(O)c(/C=N/NC(=O)c2ccc(Br)cc2)c1	4
CC(C)(C)c1ccc(O)c(/C=N/NC(=O)CC23CC4CC(CC(C4)C2)C3)c1	-6
O=C(N/N=C/c1ccc(Cl)cc1O)c1ccncc1	5
COc1cc([N+](=O)[O-])cc(/C=N/NC(=O)CC#N)c1O	-4
NC(=O)C(=O)N/N=C/c1c(O)cc(O)cc1O	-1

Please list inhibition recorded for the compound `O=C(N/N=C/c1cccc(F)c1O)c1cccc(C(F)(F)F)c1` -10

Please list inhibition recorded for the compound `COc1cc(Br)cc(/C=N/NC(=O)Cc2ccccc2)c1O` 10

Please list inhibition recorded for the compound `O=C(N/N=C/c1cc(I)cc(I)c1O)c1cc(Cl)cc(Cl)c1` 0

Please list inhibition recorded for the compound `COc1cccc(C(=O)N/N=C/c2cc(Br)ccc2O)c1` 6

Please list inhibition recorded for the compound `COc1cc(Br)cc(/C=N/NC(=O)c2sc3ccccc3c2Cl)c1O` -6

---

test system: Yersinia pseudotuberculosis YPIII; test: Inhibition of T3S in Yersinia pseudotuberculosis YPIII expressing yopE-luxAB at 1.56 uM after 3 hrs by luciferase reporter gene assay
reported.property: inhibition
Kindly format the answer as number then unit.

Solved cases below.
Cc1ccc(C(=O)N/N=C/c2cc(C(C)(C)C)ccc2O)cc1	13%
COc1ccc(Br)c(/C=N/NC(=O)c2snnc2C)c1O	-5%
O=C(CC12CC3CC(CC(C3)C1)C2)N/N=C/c1ccc(Cl)cc1O	0%
O=C(N/N=C/c1c(O)cc(O)cc1O)c1sc2ccccc2c1Cl	2%
O=C(N/N=C/c1cc(Br)ccc1O)c1ccncc1	-8%

Next:
Please list inhibition recorded for the compound `O=C(Cc1ccccc1)N/N=C/c1cc(Br)ccc1O` 15%
